The measurements presented in this section are drawn from patent US8575186B2.

# tgt: human 5-HT6 receptor (Homo sapiens (Human))
# Sequence (P50406 whole entry): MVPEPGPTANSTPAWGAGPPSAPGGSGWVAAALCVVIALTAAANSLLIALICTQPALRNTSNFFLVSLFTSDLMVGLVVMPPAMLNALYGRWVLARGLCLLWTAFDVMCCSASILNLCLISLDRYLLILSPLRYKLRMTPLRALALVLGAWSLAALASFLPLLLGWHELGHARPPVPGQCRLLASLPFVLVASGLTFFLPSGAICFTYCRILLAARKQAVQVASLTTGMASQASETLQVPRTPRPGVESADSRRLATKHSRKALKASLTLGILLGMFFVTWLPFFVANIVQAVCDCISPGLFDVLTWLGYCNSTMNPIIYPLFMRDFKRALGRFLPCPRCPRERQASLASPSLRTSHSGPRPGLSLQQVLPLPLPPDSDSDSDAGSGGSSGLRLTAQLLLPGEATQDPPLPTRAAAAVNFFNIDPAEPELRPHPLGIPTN
# assay-summary: radioligand binding assay (SPA format), [N-methyl-3H]-LSD
# measurement-context: read-out: human 5HT6 Ki; human 5-HT6 receptor membranes, 10 nM [3H]-LSD
Please note: Ki exactly at 3 nM is not satisfied. Only values below 3 nM get satisfied.

[in] For COc1cc(S(=O)(=O)n2ccc3ccccc32)cc2c3c(n(C)c12)CC1CCC3N1 (stereo not shown) [Example 241] , is the recorded Ki below the cut-off of 3 nM?
[out] satisfied

Continuing:
[in] For COCCn1ccc2cc(S(=O)(=O)c3ccc4c(c3)c3c(n4C)CC4CCC3N4)ccc21 (stereo not shown) , is the recorded Ki below the cut-off of 3 nM?
[out] not satisfied

[in] For Cn1c2c(c3cc(S(=O)(=O)c4cccc(-c5cc[nH]n5)c4)ccc31)C1CCC(C2)N1 (stereo not shown) , is the recorded Ki below the cut-off of 3 nM?
[out] not satisfied

[in] For Cl.Cn1c2c(c3cc(S(=O)(=O)c4cccc(O)c4)ccc31)C1CCC(C2)N1 (stereo not shown) [Example 42, hydrochloride] , is the recorded Ki below the cut-off of 3 nM?
[out] not satisfied
